B1: POU domain, class 2, transcription factor 2, residues 200 to 269; numbered along this chain, P09086 (parent)
chain: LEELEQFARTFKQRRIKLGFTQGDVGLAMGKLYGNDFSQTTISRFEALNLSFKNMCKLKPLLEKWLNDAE

- Variants of: B1
- Protocol Summary: abundance fitness (aPCA) (normalised: wild type 0, dead -1); higher = more abundant; growth selection in yeast, the domain comes from the species named
- Assay Context: Homo sapiens
Where abundance fitness equals or exceeds -0.2, the correct label is met; where it does not, the label is not met.

Field: example entries. Status: answers known.
{"columns": ["Variant Spec", "Assigned Label"],
 "data": [
  ["N54D", "met"],
  ["G30L", "met"],
  ["R44H", "met"]
]}

Request: Assess whether reported abundance fitness for N67D sits at -0.2 or higher.
Result: not met
